Provide the recorded polymerase ribozyme fitness (log ratio) for the entries that follow.
B1: TPR 5TU (parent)
chain: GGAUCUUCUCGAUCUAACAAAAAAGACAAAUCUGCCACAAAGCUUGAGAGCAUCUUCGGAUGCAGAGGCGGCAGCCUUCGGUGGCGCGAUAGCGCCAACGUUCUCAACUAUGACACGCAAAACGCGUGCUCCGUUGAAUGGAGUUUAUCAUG

# Variants of: B1
# Procedure text: polymerase ribozyme fitness, log enrichment relative to wild type (log ratio); higher = more active; in vitro selection for triplet polymerase activity
Fewer inactive variants are shown than the library holds.

Just so you know, measured polymerase ribozyme fitness (log ratio) for U61G C87A A150G came out at ≤ -4.2

Just so you know, measured polymerase ribozyme fitness (log ratio) for U13A C105A A107C U134A came out at ≤ -4.2

Just so you know, measured polymerase ribozyme fitness (log ratio) for A28G G50C G81C C95G C96U A98C A113U G143U came out at ≤ -4.2

Just so you know, measured polymerase ribozyme fitness (log ratio) for C54U G81A C95U came out at -0.559

Just so you know, measured polymerase ribozyme fitness (log ratio) for U56A A89U came out at -0.431

Just so you know, measured polymerase ribozyme fitness (log ratio) for A29U G133C came out at ≤ -4.2

Just so you know, measured polymerase ribozyme fitness (log ratio) for G59U U148C came out at -1.18

Just so you know, measured polymerase ribozyme fitness (log ratio) for A29C G65A C108U C116G C125A U146G A150G came out at ≤ -4.2

Just so you know, measured polymerase ribozyme fitness (log ratio) for A26C A52C C69U G100A C125A came out at ≤ -4.2

Just so you know, measured polymerase ribozyme fitness (log ratio) for A24G U61C U82G C95U came out at ≤ -4.2

Just so you know, measured polymerase ribozyme fitness (log ratio) for G81A C93U C95U came out at -1.11

Cited source for all entries: the RNAGym collection of RNA variant scans (doi:10.1073/pnas.2313332121)
